Measured values drawn from ChEMBL document CHEMBL1124205 for this set.

system: Vaccinia virus; assay: Antiviral activity against vaccinia virus in HEP -2 cells; type: functional, Orthopoxvirus vaccinia
recordedMetric: VR
Response field accepts a number only; no unit should be typed.

Worked examples, 4 molecules total:
molecule	VR
Nc1ncnc2c1ncn2C1C(O)C(O)C(CO)C1O (stereo not given)	0.8
Nc1ncnc2c1ncn2[C@H]1[C@H](O)[C@H](O)[C@@H](CO)[C@@H]1F	0.4
Nc1ncnc2c1ncn2[C@@H](C=O)O[C@@H](C=O)CO	1.3
C=C1C(CO)C(O)C(O)C1n1cnc2c(N)ncnc21 (stereo not given)	0.9

Kindly review the next molecule as well.
Value (VR, Vaccinia virus) for record Nc1ncnc2c1ncn2[C@H]1[C@H](O)[C@H](O)[C@@H](CO)[C@H]1F = 0.8
